The measurements presented in this section are drawn from PubChem BioAssay AID2060622.

Tested on: 242566-281-R-J2-PDC complex spheroid viability;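 note: spheroids exposed to compounds for 7 days before readout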
Test: Anticancer human tumor 242566-281-R-J2-PDC patient-derived pancreatic carcinoma cell line growth inhibition [CLK]; active = viability on the fitted dose curve at most 10% of control; inactive = the rest
Conditions: second compound 3.16 µM; first compound 0.1 µM
Labels: Y for active, N for inactive

# COMPOUND, ASSIGNED CLASS
measured = [
    ("CC(=O)O[C@H]1C(=O)[C@@]2(C)[C@H]([C@H](OC(=O)c3ccccc3)[C@]3(O)C[C@H](OC(=O)[C@H](O)[C@@H](NC(=O)c4ccccc4)c4ccccc4)C(C)=C1C3(C)C)[C@]1(OC(C)=O)CO[C@@H]1C[C@@H]2O + CNC(=O)c1ccc(Nc2nc(OC3CCCC3)c3c(-c4ccc5nc(C)oc5c4)c[nH]c3n2)c(OC)c1", "N"),
    ("COC1C=CCC(C)C(C)S(=O)(=O)NC(=O)c2ccc3c(c2)N(CC2CCC21)CC1(CCCc2cc(Cl)ccc21)CO3 (centres undefined) + CN1CCN(c2cc(C(=O)Nc3cc4cc(-c5cnn(C)c5)ccc4cn3)ccn2)CC1", "Y"),
    ("COc1c(OCCCN2CCOCC2)ccc2c3n(c(=NC(=O)c4cnc(N)nc4)nc12)CCN3 + CNC(=O)c1ccc(Nc2nc(OC3CCCC3)c3c(-c4ccc5nc(C)oc5c4)c[nH]c3n2)c(OC)c1", "N"),
    ("COc1ccc([C@@H](O)c2cc(-c3ncnc4cc(N5CCOCC5)ccc34)c(F)cc2Cl)nn1 + CNC(=O)c1ccc(Nc2nc(OC3CCCC3)c3c(-c4ccc5nc(C)oc5c4)c[nH]c3n2)c(OC)c1", "N"),
]
